Target: Cytochrome P450 2C9 (Homo sapiens)
Sequence (P11712 whole entry): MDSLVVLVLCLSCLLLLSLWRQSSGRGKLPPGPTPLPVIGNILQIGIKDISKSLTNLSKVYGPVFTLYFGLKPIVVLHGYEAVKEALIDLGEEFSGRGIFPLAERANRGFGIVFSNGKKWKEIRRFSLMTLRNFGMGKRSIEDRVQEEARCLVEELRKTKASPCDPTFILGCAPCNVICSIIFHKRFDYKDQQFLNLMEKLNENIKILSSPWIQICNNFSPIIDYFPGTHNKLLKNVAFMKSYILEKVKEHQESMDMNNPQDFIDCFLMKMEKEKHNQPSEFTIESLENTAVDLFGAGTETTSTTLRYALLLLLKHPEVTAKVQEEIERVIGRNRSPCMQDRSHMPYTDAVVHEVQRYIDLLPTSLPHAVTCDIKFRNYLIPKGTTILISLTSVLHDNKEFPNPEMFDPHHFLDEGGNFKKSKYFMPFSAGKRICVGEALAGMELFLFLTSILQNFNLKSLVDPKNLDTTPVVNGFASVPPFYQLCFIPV
Cut-off 5 µM on IC50: below means y, at or above means n.

These recorded examples may help you get a feel for the data.
1) Cc1noc(C)c1-c1ccc2c(Nc3ccccc3C(C)(C)C)c(C(=O)O)cnc2c1 = n
2) Cc1noc(C)c1-c1ccc2c(Nc3ccccc3)c(C(=O)O)cnc2c1 = n
3) COc1cc2c(cc1-c1c(C)noc1C)ncc1[nH]c(=O)n([C@H](C)c3ccccn3)c12 = n
4) COc1cc2c(Nc3ccccc3C(=O)c3ccccn3)c(C(N)=O)cnc2cc1-c1c(C)noc1C = n
5) COc1cc2c(cc1-c1c(C)noc1C)ncc1[nH]c(=O)n(Cc3ccccc3)c12 = y

Now take the following compound into account.
Lab log: compare recorded IC50 with 5 µM; is it strictly lower for COc1cc2c(cc1-c1c(C)noc1C)ncc1[nH]c(=O)n(C(C)c3ccccc3)c12 (racemic) ? y

====

Examples of molecules with documented IC50 follow.
Target: Cytochrome P450 3A4 (Homo sapiens, UniProt P08684)
Sequence (P08684 whole entry): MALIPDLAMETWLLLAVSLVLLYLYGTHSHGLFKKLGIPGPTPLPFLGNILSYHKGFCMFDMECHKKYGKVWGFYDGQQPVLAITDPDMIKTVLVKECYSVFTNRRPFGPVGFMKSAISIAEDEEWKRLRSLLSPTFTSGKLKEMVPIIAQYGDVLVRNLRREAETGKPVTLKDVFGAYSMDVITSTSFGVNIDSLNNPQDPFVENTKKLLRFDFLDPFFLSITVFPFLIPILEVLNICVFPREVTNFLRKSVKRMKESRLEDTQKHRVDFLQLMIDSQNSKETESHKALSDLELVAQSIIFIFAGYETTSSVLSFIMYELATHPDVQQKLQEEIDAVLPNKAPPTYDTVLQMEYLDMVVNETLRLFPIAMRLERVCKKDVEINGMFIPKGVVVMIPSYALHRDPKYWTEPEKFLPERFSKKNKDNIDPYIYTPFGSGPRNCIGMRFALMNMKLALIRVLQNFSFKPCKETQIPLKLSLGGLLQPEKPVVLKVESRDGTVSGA
Report the figure in nM without appending any unit label.

Completed entries (count: 7):
1. Cc1noc(C)c1-c1ccc2c(Nc3ccccc3C(C)(C)C)c(C(=O)O)cnc2c1 = 13000
2. COc1cc2c(Nc3ccccc3C(=O)c3ccccn3)c(C(N)=O)cnc2cc1-c1c(C)noc1C = 3100
3. COc1cc2c(cc1-c1c(C)noc1C)ncc1[nH]c(=O)n(C(C)c3ccccc3)c12 (racemic) = 2000
4. COc1cc2c(Nc3ccccc3C(=O)N3CCCCC3)c(C(N)=O)cnc2cc1-c1c(C)noc1C = 1800
5. COc1cc2c(Nc3ccccc3F)c(C(N)=O)cnc2cc1-c1c(C)noc1C = 4700
6. COc1cc2c(Nc3ccccc3N3CCOCC3)c(C(N)=O)cnc2cc1-c1c(C)noc1C = 1500
7. COc1cc2c(cc1-c1c(C)noc1C)ncc1[nH]c(=O)n(-c3ccccc3C(C)(C)C)c12 = 1700

Attention now turns to another entry.
// fetch Cytochrome P450 3A4 (Homo sapiens, UniProt P08684) IC50 for `Cc1noc(C)c1-c1ccc2c(Nc3ccccc3C(C)(C)C)c(C(N)=O)cnc2c1` 2000

====

Assay: Oral bioavailability in CD rat
Format: ADME, organism-based
Details: in vivo
measurement-label: bioavailability (%)
# output: bare number, implied unit %

1) COc1cc2c(Nc3cccc4cccnc34)c(C(N)=O)cnc2cc1-c1c(C)noc1C = 59

# context switch: different compound, same bioavailability
Return reported bioavailability; argument: `COc1cc2c(cc1-c1c(C)noc1C)ncc1[nH]c(=O)n([C@H](C)c3ccccn3)c12` 66

====

Test: Clearance in iv dosed CD rat blood after 1 hr
Type: ADME, organism-based
Conditions: whole blood
measurement-label: clearance (mL/min/kg)
Numbers only; they are read as mL/min/kg.

// clearance lookup, key: `COc1cc2c(Nc3cccc4cccnc34)c(C(N)=O)cnc2cc1-c1c(C)noc1C` 50

====

Test: Volume of distribution at steady state in CD rat
Type: ADME, organism-based
Details: in vivo, read-out: Vdss
// values below are reported Vd
The reply should contain only the number, in L/kg.

1) COc1cc2c(cc1-c1c(C)noc1C)ncc1[nH]c(=O)n([C@H](C)c3ccccn3)c12 = 2.1

Could you now consider this next molecule?
Quick one: Vd for `COc1cc2c(Nc3cccc4cccnc34)c(C(N)=O)cnc2cc1-c1c(C)noc1C` ? 4
